- targetSystem: Beta-amyloid 1-40 Abeta 1-40 (Homo sapiens, UniProt P05067)
- Sequence (P05067 1-40): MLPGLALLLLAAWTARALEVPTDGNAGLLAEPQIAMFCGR
- assayComment: tryptophan fluorescence titration
The binders listed here are annotated with their pKd.
Conceptually, pKd converts a concentration in mol/L into minus its log10.

# binder, pKd
records = [
    ("AWKVLS [RAGE fragment P4 (60-65)]", 5.55),
    ("AWKVLSPQGGG [RAGE fragment P2 (60-70)]", 5.39),
    ("KVLSPQGGGPWD [RAGE fragment P6 (62-73)]", 5.82),
    ("AWKVLSPQGGGPWDSVA [RAGE fragment P1 (60-76)]", 5.86),
]

Could you now look at the following binder, please?
## Task Provide pKd value for the following binder: AWK [RAGE fragment P3 (60-62)]
## Result 6.08
